For each of the molecules below, state its % Degradation At 0.3 μM.
target: ERα (Homo sapiens, UniProt P03372); construct: host or cells: MCF7; experiment: Estrogen receptor degradation activity: breast cancer cell ERα in cell western assay (MCF7 cells); format: cell-based; details: 0.3 μM, 4 hours, relative to fulvestrant 0.1 μM positive control
Your answer should be a plain number; it is taken to be in %.

Task item: I would be grateful if you could share the reported % Degradation At 0.3 μM for `Cl.O=C(O)c1ccc2c(c1)CCC(c1ccc(Cl)cc1Cl)=C2c1ccc(C=C2CN(CCCF)C2)cc1` .
Reply: 93

Task item: I would be grateful if you could share the reported % Degradation At 0.3 μM for `Cc1cccc(C2=C(c3ccc(C=C4CN(CCCF)C4)cc3)c3ccc(C(=O)O)cc3CCC2)c1F` .
Reply: 95

Task item: I would be grateful if you could share the reported % Degradation At 0.3 μM for `O=C(O)c1ccc2c(c1)CCCC(c1ccc(Cl)c(C(F)(F)F)c1)=C2c1ccc(C=C2CN(CCCF)C2)cc1` .
Reply: 88

Task item: I would be grateful if you could share the reported % Degradation At 0.3 μM for CC1(C)CCCC(C2=C(c3ccc(C=C4CN(CCCF)C4)cc3)c3ccc(C(=O)O)cc3CCC2)C1 (single isomer, unassigned) [Example 172] .
Reply: 89

###

Target: ERα (Homo sapiens)
Construct: host or cells: MCF7
Sequence (P03372 1-595): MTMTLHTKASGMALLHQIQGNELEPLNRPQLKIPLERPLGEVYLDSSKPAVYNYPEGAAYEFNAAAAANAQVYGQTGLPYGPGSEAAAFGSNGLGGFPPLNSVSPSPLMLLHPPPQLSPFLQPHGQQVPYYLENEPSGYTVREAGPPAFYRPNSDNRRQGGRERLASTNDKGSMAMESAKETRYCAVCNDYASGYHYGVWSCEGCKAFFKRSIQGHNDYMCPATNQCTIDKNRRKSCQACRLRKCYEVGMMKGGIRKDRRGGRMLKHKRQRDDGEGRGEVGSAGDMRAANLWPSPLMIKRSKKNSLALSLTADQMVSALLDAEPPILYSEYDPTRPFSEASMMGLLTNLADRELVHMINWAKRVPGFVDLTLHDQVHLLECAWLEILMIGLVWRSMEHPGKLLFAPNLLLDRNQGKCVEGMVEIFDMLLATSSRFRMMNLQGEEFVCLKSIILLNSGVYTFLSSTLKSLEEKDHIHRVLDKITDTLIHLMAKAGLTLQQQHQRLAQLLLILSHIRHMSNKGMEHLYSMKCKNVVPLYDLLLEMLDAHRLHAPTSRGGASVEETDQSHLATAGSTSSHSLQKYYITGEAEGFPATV
Experiment: Estrogen receptor degradation activity: breast cancer cell ERα in cell western assay (MCF7 cells)
Type: cell-based
Settings: 4 hours post compound addition, concentration which degrades 50% of the estrogen receptor, read-out: Degradation IC50
For each of the compounds below, state its DC50.
Your answer should be a plain number; it is taken to be in nM.

Task item: State its DC50 on ERα (Homo sapiens): `O=C(O)c1ccc2c(c1)CCCC(c1ccc(Cl)cc1Cl)=C2c1ccc(C=C2CN(CCCF)C2)cn1`
Reply: 20.4

Task item: State its DC50 on ERα (Homo sapiens): `O=C(O)c1ccc2c(c1)CCCC(c1cccc3c1CCC3)=C2c1ccc(C=C2CN(CCC(F)F)C2)cc1`
Reply: 0.8

Task item: State its DC50 on ERα (Homo sapiens): `O=C(O)c1ccc2c(c1)CCCC(c1ccc(C3CC3)cc1F)=C2c1ccc(C=C2CN(CCCF)C2)cc1`
Reply: 0.3

Task item: State its DC50 on ERα (Homo sapiens): `O=C(O)c1ccc2c(c1)CCCC(c1cccc(F)c1Cl)=C2c1ccc(C=C2CN(CCCF)C2)cc1`
Reply: 0.6

Task item: State its DC50 on ERα (Homo sapiens): `[2H]C([2H])(CCF)N1CC(=Cc2ccc(C3=C(c4ccc(Cl)cc4Cl)CCCc4cc(C(=O)O)ccc43)cc2)C1`
Reply: 0.4

Task item: State its DC50 on ERα (Homo sapiens): `O=C(O)c1ccc2c(c1)CCCC(c1ncc(Cl)cc1C(F)(F)F)=C2c1ccc(C=C2CN(CCC(F)F)C2)cc1`
Reply: 0.7

Task item: State its DC50 on ERα (Homo sapiens): O=C(O)c1ccc2c(c1)CCCC(C1CC13CCC3)=C2c1ccc(C=C2CN(CCCF)C2)cc1 (stereo not shown)
Reply: 0.3

Hello, the source for this data is patent US12612360B2, in case you need it.
